# procedureDetails: recombinant UMI read abundance after kanamycin selection (control-corrected) (log10(CPM+1)); higher = more efficient recombination; extreme values may be limits of the assay; sequences stand for … in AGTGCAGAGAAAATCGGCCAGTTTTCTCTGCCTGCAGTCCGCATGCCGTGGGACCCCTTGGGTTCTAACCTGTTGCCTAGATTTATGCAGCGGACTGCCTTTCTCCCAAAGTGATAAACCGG…AGGTTGGTTTCACT; site = the 11-nt donor;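 further: IS621 bridge recombinase in Escherichia coli cells against a fixed T5 target plasmid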
List of recombinant UMI read abundance (log10) values.

sequenceContent	recombinant UMI read abundance (log10)
CAAGCAGCATGGACCGGTTTTCCCGGTAATCCGTATTTGCG (site CAAGCAGCTGG)	0
TCAGGTGCATGGACCGGTTTTCCCGGTAATCCGTATTTGAT (site ACAGGTGCTAT)	0
ACTCGAGCATGGACCGGTTTTCCCGGTAATCCGTATTTGCT (site ACTCGAGCTAG)	1.64
CTATGATCATGGACCGGTTTTCCCGGTAATCCGTATTTGCG (site CTATGATCTCG)	3.16
GTTGTTCCATGGACCGGTTTTCCCGGTAATCCGTATTTGGT (site GTTGTTTCTAC)	0
TATTTAGCATGGACCGGTTTTCCCGGTAATCCGTATTTGTG (site TATTTCGCTCA)	0.026
TTCCGCTCATGGACCGGTTTTCCCGGTAATCCGTATTTGTG (site TTCCGCTCTCA)	0
TGTTTGGCATGGACCGGTTTTCCCGGTAATCCGTATTTGCT (site GGTTTGGCTAG)	0.0409
CGATCAGCATGGACCGGTTTTCCCGGTAATCCGTATTTGCT (site CGATCAACTAG)	0
GGAGTGACATGGACCGGTTTTCCCGGTAATCCGTATTTGGT (site GGAGTGGCTAC)	0.259
GTTCTAGCATGGACCGGTTTTCCCGGTAATCCGTATTTGCA (site GTTCTAGCTTG)	0.902
ACAATATCATGGACCGGTTTTCCCGGTAATCCGTATTTGGA (site ACAATATCTTC)	2.07
GATTGGACATGGACCGGTTTTCCCGGTAATCCGTATTTGCC (site GATTGGACTGA)	0
CCTAATACATGGACCGGTTTTCCCGGTAATCCGTATTTGGC (site TCTAATACTGC)	0
CGCTACTCATGGACCGGTTTTCCCGGTAATCCGTATTTGCT (site CGCTACTCTAG)	2.85
CTTTATTCATGGACCGGTTTTCCCGGTAATCCGTATTTGCG (site CTTTATTCTCG)	1.11
ATCTATACATGGACCGGTTTTCCCGGTAATCCGTATTTGAC (site ATCTCTACTGT)	0
ATGGAAACATGGACCGGTTTTCCCGGTAATCCGTATTTGCG (site ATGGAAACTCG)	2.39
TGGTCACCATGGACCGGTTTTCCCGGTAATCCGTATTTGTC (site GTACTCACTCC)	0.00879
CTAGTATCATGGACCGGTTTTCCCGGTAATCCGTATTTGAT (site CTAGTATCTGT)	1.31
ACGAACTCATGGACCGGTTTTCCCGGTAATCCGTATTTGTC (site ACGAACTCTGA)	2.03
ACACATCCATGGACCGGTTTTCCCGGTAATCCGTATTTGTC (site ACACATCCTGC)	0.011
TATAATACATGGACCGGTTTTCCCGGTAATCCGTATTTGCA (site TACAATACTTG)	0.35
AGACTTGCATGGACCGGTTTTCCCGGTAATCCGTATTTGTA (site AGACTTGCTTA)	0.887
ACAGGTGCATGGACCGGTTTTCCCGGTAATCCGTATTTGAT (site ACAGGTGCTAT)	2.2
CAGGTTCCATGGACCGGTTTTCCCGGTAATCCGTATTTGAA (site CAGGTTCCTTT)	1.98
CCCATATCATGGACCGGTTTTCCCGGTAATCCGTATTTGAC (site CCCATATCTGT)	0.446
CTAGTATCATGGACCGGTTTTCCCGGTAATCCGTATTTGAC (site CAAGAATCTGT)	0
TATTTAGCATGGACCGGTTTTCCCGGTAATCCGTATTTGTG (site TATTTAGCTCA)	0.31
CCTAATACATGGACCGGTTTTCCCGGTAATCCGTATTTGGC (site CATAATACTGC)	0
CCTAGAGCATGGACCGGTTTTCCCGGTAATCCGTATTTGAT (site CCTATAGCTAT)	0
CCTAAAGCATGGACCGGTTTTCCCGGTAATCCGTATTTGAT (site CCGAAAGCTAT)	0
GTAGAACCATGGACCGGTTTTCCCGGTAATCCGTATTTGCA (site GTAGAACCTTG)	0
TCCCCCGCATGGACCGGTTTTCCCGGTAATCCGTATTTGCG (site TCCCCCGCTCG)	0.0127
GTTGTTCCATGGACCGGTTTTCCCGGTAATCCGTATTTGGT (site CTTGTTCCTAC)	0.00343
TTATACTCATGGACCGGTTTTCCCGGTAATCCGTATTTGCA (site TGATACTCTTG)	2.05

The values you see were collected from the supplement of paper PMC11208160.
